# total protein half-life in vivo listing for each entry below
# method: total protein half-life in vivo (active degradation + dilution); higher = more stable protein
# condition-context: wild type E. coli NCM3722; growth: C-lim chemostat; doubling time 12 h
Report the figure in h without appending any unit label.

MLKKFRGMFSNDLSIDLGTANTLIYVKGQGIVLNEPSVVAIRQDRAGSPKSVAAVGHDAKQMLGRTPGNIAAIRPMKDGVIADFFVTEKMLQHFIKQVHSNSFMRPSPRVLVCVPVGATQVERRAIRESAQGAGAREVFLIEEPMAAAIGAGLPVSEATGSMVVDIGGGTTEVAVISLNGVVYSSSVRIGGDRFDEAIINYVRRNYGSLIGEATAERIKHEIGSAYPGDEVREIEVRGRNLAEGVPRGFTLNSNEILEALQEPLTGIVSAVMVALEQCPPELASDISERGMVLTGGGALLRNLDRLLMEETGIPVVVAEDPLTCVARGGGKALEMIDMHGGDLFSEE [P0A9X4]: 12.1

Problem: Which total protein half-life in vivo is reported for this sequence? MSWQEKINAALDARRAADALRRRYPVAQGAGRWLVADDRQYLNFSSNDYLGLSHHPQIIRAWQQGAEQFGIGSGGSGHVSGYSVVHQALEEELAEWLGYSRALLFISGFAANQAVIAAMMAKEDRIAADRLSHASLLEAASLSPSQLRRFAHNDVTHLARLLASPCPGQQMVVTEGVFSMDGDSAPLAEIQQVTQQHNGWLMVDDAHGTGVIGEQGRGSCWLQKVKPELLVVTFGKGFGVSGAAVLCSSTVADYLLQFARHLIYSTSMPPAQAQALRASLAVIRSDEGDARREKLAALITRFRAGVQDLPFTLADSCSAIQPLIVGDNSRALQLAEKLRQQGCWVTAIRPPTVPAGTARLRLTLTAAHEMQDIDRLLEVLHGNG
Result: 8.97

Reference for the values: the supplement of paper PMC11246515
